For each of the binders below, state its Fold-Change ZH501/MP-12 (ratio of neutralization IC50s).
# study target: Gn of RVFV-ZH501 (Rift Valley Fever Virus strain ZH501)
# test summary: cell-based or functional assay
Answers are plain numbers, in fold.

Past entries and their recorded results:
>>> reported_measurement("RVFV-379 (antibody, V domains shown) VH: QVQLQESGPGLVKPSQTLSLTCTVSGDSISGGDYYWSWIRRPAGEGLEWIGRVHTTGSTDYNPSLRTRVTISIDTSKNHFFLKMTSVTAADTAVYYCAREGDYSAWFDPWGQGALVTVSS VL: DIQMTQSPSSLSASIGDRVTITCRASQHIESFLNWYQQKPGKAPKLLIYIASTLQGGVPSRFSGRGFGTDFTLTINSLQPEDFATYYCQQSYTISPITFGQGTRLEIK")
3.5
>>> reported_measurement("RVFV-405 (antibody, V domains shown) VH: EVQLVESGGGLVQPGGSLRLSCAASGFTFSSFEMNWVRQAPGKGLEWVSYISRSGTTKHYADSVKGRFAISRDDAKNSLYLQMNSLRAEDTAVYYCARGGARVLQAPLDYWGQGTLVTVSS VL: SYELTQPPSVSVAPGETARITCGGTNIGNKSVRWYQQKPGQAPVLVIYYDNDRPSGIPERFSGSNSGNTATLTISRVEAGDEADYYCQVWDNSSDHAVFGGGTKLTVL")
1

Bench note: what Fold-Change ZH501/MP-12 (ratio of neutralization IC50s) did RVFV-296 (antibody, V domains shown) VH: QVQLVQSGSELKKSGASVKVSCRASGYTFTTYVMNWVRQAPGQGLEWMGWINTNTGNPTYAQGFTGRFVFSLDTSVSTAYLQINSLKAEDTAVYYCAREYNSFDYWGQGTLVTVSS VL: QSVLTQPPSVSGAPGQRVTISCTGSSSNIGAGYDVHWYQQLPGTAPKLLIYDNNNRPSGVPDRFSGSRSGTSTSLAITGLQAEDEADYYCQSYDFRLSGSVFGGGTKVTVL show? 0.2
